- testedOn: MaxL homodimer (Homo sapiens, UniProt P61244 1-160)
- Sequence (P61244 whole entry): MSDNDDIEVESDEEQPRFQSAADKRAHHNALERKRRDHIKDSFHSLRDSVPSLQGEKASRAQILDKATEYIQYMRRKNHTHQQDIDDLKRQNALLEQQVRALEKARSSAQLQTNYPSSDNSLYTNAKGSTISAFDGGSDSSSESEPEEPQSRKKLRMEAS
- methodSummary: universal protein-binding microarray (PBM); PBS-based mixture, 10 nM His-tagged protein dimer, 2% milk, 200 ng/uL BSA, 50 ng/uL salmon testes DNA, 0.02% TX-100; detection with Alexa 488 anti-His antibody;; high values mean tight binding;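 also: fluorescence intensity normalized to that of the highest-ranked 8-mer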
- experimentalContext: protein: recombinant; tags: C-terminal His-tag (pET21a); chain copies: 2; dsDNA, one strand shown
In all, about 33,000 sequences were measured (“normalized occupancy”: median about 0.075, highest 2% from about 0.095 on). For the sample, the highest values were picked, then their nearest neighbours and some sequences at random.

sequenceCode: AACATGTA
testedOn: MaxL homodimer (Homo sapiens, UniProt P61244 1-160)
binding signal, normalized occupancy: 0.0923
--
sequenceCode: ATTCCACA
testedOn: MaxL homodimer (Homo sapiens, UniProt P61244 1-160)
binding signal, normalized occupancy: 0.0794
--
sequenceCode: ATGTGAGC
testedOn: MaxL homodimer (Homo sapiens, UniProt P61244 1-160)
binding signal, normalized occupancy: 0.0803
--
sequenceCode: ACGTGAGT
testedOn: MaxL homodimer (Homo sapiens, UniProt P61244 1-160)
binding signal, normalized occupancy: 0.0893
--
sequenceCode: ACGGTGGC
testedOn: MaxL homodimer (Homo sapiens, UniProt P61244 1-160)
binding signal, normalized occupancy: 0.079
--
sequenceCode: GCCCCACA
testedOn: MaxL homodimer (Homo sapiens, UniProt P61244 1-160)
binding signal, normalized occupancy: 0.0784
--
sequenceCode: ATCACGCA
testedOn: MaxL homodimer (Homo sapiens, UniProt P61244 1-160)
binding signal, normalized occupancy: 0.0877
--
sequenceCode: TACAGACA
testedOn: MaxL homodimer (Homo sapiens, UniProt P61244 1-160)
binding signal, normalized occupancy: 0.0803
--
sequenceCode: AAGACTAT
testedOn: MaxL homodimer (Homo sapiens, UniProt P61244 1-160)
binding signal, normalized occupancy: 0.0779
--
sequenceCode: ATAATGCC
testedOn: MaxL homodimer (Homo sapiens, UniProt P61244 1-160)
binding signal, normalized occupancy: 0.0813
--
sequenceCode: AACTCATC
testedOn: MaxL homodimer (Homo sapiens, UniProt P61244 1-160)
binding signal, normalized occupancy: 0.0815
--
sequenceCode: TGATGGCA
testedOn: MaxL homodimer (Homo sapiens, UniProt P61244 1-160)
binding signal, normalized occupancy: 0.08
